The measurements presented in this section are drawn from BindingDB's records for doi:10.1021/jm0102203.

test: Ability to inhibit Human cytomegalovirus (HCMV) protease activity
Entries and their measured IC50 follow.
Parameter: IC50 (µM)

> print(dat)
                                   molecule  parameter  measure.unit  qualifier.sign  endpoint.value
1  C[C@@H]1C(=O)N(C(=O)n2cccc2)[C@H]2CCN(C(=O)OCc3ccccc3)C12 (stereo partly drawn)       IC50            µM               =             250
2  CC(=O)C=CN1C(=O)[C@@H](C)C2[C@@H]1CCN2C(=O)OCc1ccccc1 (stereo partly drawn)       IC50            µM               >             500
3  C[C@@H]1C(=O)N(c2ccc([N+](=O)[O-])cc2[N+](=O)[O-])[C@H]2CCN(C(=O)OCc3ccccc3)C12 (stereo partly drawn)       IC50            µM               =             500
